Cited source: ChEMBL document CHEMBL1154143

Tested on: MCF7
Assay: Cytotoxicity against human MCF7 cells by MTT assay
Assay type: functional, cell-based
Metric Name: IC50

Consider the reported IC50 for these molecules:
> print(dat)
                                   molecule  reported.result
1  C=C1C(=O)O[C@H]2/C=C(\C)CC/C=C(\C)C/C=C/[C@](C)(O)CC[C@@H]12 [CRASSUMOLIDE D]        > 5 µg/mL
2  C/C1=C\[C@@H]2OC(=O)[C@@H](CN(C)C)[C@@H]2CCC(C)/C=C/C/C(C(=O)O)=C/CC1 (stereo partly specified)        > 5 µg/mL
3  COc1cccc2c1C(=O)c1c(O)c3c(c(O)c1C2=O)C[C@@](O)(C(=O)CO)C[C@@H]3O[C@H]1C[C@H](N)[C@H](O)[C@H](C)O1 [DOXORUBICIN]        0.2 µg/mL
4  C=C1C(=O)O[C@H]2/C=C(\C)CC[C@H](OC(C)=O)[C@@]3(C)CC[C@H](OO3)/C(C)=C\C[C@@H]12 [DENTICULATOLIDE]          2 µg/mL
5  C=C(CO)[C@@H]1CC/C(C)=C/CC/C(C)=C/CC/C(C)=C/[C@@H]1O        > 5 µg/mL

Q: Read the entry C=C(CO)[C@@H]1CC[C@@](C)(OO)/C=C/C/C(C)=C/CC/C(C)=C/[C@@H]1O [CRASSUMOLIDE E] and write its reported IC50.
A: > 5 µg/mL

Q: Read the entry C=C1C(=O)O[C@H]2/C=C(\C)CC/C=C(\C(=O)OC)CC/C=C(\C)CC[C@@H]12 [CRASSUMOLIDE C] and write its reported IC50.
A: > 5 µg/mL

Q: Read the entry C=C1C(=O)O[C@H]2C/C(C)=C/[C@@H](O)C/C(C)=C/CC/C(C)=C/C[C@H]12 [CRASSUMOLIDE A] and write its reported IC50.
A: > 5 µg/mL

Q: Read the entry C=C1C(=O)O[C@H]2/C=C(\C)CC/C=C(/C(=O)O)CC/C=C(\C)CC[C@@H]12 [LOBOHEDLEOLIDE] and write its reported IC50.
A: > 5 µg/mL

Q: Read the entry C=C1C(=O)O[C@H]2/C=C(\C)CC/C=C(\CO)CC/C=C(\C)CC[C@@H]12 [CRASSUMOLIDE B] and write its reported IC50.
A: > 5 µg/mL

Q: Read the entry C=C1C(=O)O[C@H]2/C=C(\C)C/C=C/[C@@](C)(O)CC/C=C(\C)CC[C@@H]12 [CRASSUMOLIDE F] and write its reported IC50.
A: > 5 µg/mL
